experiment: qHTS Assay for Modulators of miRNAs and/or Inhibitors of miR-21; conditions: HeLa miR-21-FLuc reporter, luciferase luminescence, 48 h; actives lower the signal; also: potency is read from the fitted curve at half-maximal effect; nearly all actives have a fitted effect of over 55% in size
Screen size: about 340,000 compounds; about 3,300 (0.97%) were called active. Another 9% or so got no clear call; they are omitted. The list shows a part of the results.
Potency values for the compounds below.

Solved entries (count: 6):
>>> df
                                   compound             result
0           c1ccc(CN2CCc3nc4ccccc4cc3C2)cc1   14.7 µM (active)
1  CC1CCc2c(sc3nc(CSc4n[nH]c(N)n4)[nH]c(=O)c23)C1 (stereo not drawn)   16.5 µM (active)
2  O=C(NNc1c(F)c(F)cc(F)c1F)c1cc2ccccc2oc1=O   8.26 µM (active)
3  BrCC1C[n+]2c(SCc3ccccc3)nc3sc4c(c3c2O1)CCCC4 (stereo not drawn)   16.5 µM (active)
4  CN1C(=O)/C(=C/c2ccc(N3CCCCCC3)o2)C(=O)NC1=S  0.826 µM (active)
5  CCN(CC)c1ccc(/C=C2\C(=O)NC(=S)N(C)C2=O)o1   1.31 µM (active)

For this compound ( COc1ccc(CCN2CCCC(CN(C)C(=O)c3cc(C)oc3C)C2)cc1 (stereo not drawn) ), measured Potency is 4.65 µM (active)

Sample Cn1nnc2cc(NC(=O)Nc3cccc(Cl)c3)ccc21 ; Potency observed: 1.47 µM (active)

Measured Potency of Cc1cc(C(=O)Nc2ccc3c(c2)OCCO3)nn1C(C)(C)C : 5.85 µM (active)

The reported Potency of the compound O=C(Oc1ccc2cc(Br)ccc2c1)N1CCCCCC1 was 4.14 µM (active)

The recorded Potency for O=c1oc2ccccc2n1CCCOc1ccccc1 is 13.1 µM (active)

Sure, the documented Potency for Nc1nc(SCc2ccc(Cl)cc2Cl)n[nH]1 is 14.7 µM (active)

Data point: O=C(CSCc1ccccc1)Nc1ccc2c(c1)OCO2 ; Potency = 5.21 µM (active)

compound O=c1c2ccccc2[nH]c(=S)n1-c1ccc2c(c1)OCCO2 , Potency observed: 7.36 µM (active)

Record summary for CC(=O)Nc1ccccc1C(=O)OCC(=O)c1ccccc1Cl : reported Potency = 14.7 µM (active)

Sure, the documented Potency for COc1ccc(CNC(=O)c2ccc(C(C)C)cc2)cc1 is 3.29 µM (active)

Lab note: measured Potency of O=c1c2ccccc2nc(Cc2ccccc2)n1-c1ccccc1 was 5.85 µM (active)

Noted for Cc1cccc(OCCn2c(=O)oc3ccc(C)cc32)c1 : its Potency reads 14.7 µM (active)

// field: Potency; key: CN(C)C(=O)Oc1ccc2c(c1)O/C(=C\c1ccccc1)C2=O ; value = 4.65 µM (active)

Record summary for COc1ccccc1N=Nc1c(O)[nH]c(=S)[nH]c1=O : reported Potency = 13.1 µM (active)

###

The following compounds are shown together with reported Potency values.
experiment: qHTS Assay for Modulators of miRNAs and/or Inhibitors of miR-21; settings: HeLa miR-21-FLuc reporter, luciferase luminescence, 48 h; actives lower the signal; also: potency is read from the fitted curve at half-maximal effect; nearly all actives have a fitted effect of over 55% in size
In all, about 340,000 compounds went through this assay and about 3,300 (0.97%) were called active. Not shown: some 9% with an inconclusive outcome. The list shows a part of the results.

                                   compound            result
0         Cc1ccc(-c2nn(Cc3ccccc3)cc2C=O)cc1  6.56 µM (active)
1  CCCCn1c(O)c(/C(C)=N/NC(=O)Nc2ccccc2)c(=O)[nH]c1=O  11.7 µM (active)
2              c1ccc2c(CN3CCCCCC3)c[nH]c2c1  2.93 µM (active)
3          CCCCN1CC(O)=C(c2nc3ccccc3s2)C1=N  6.56 µM (active)

Potency reported for this compound c1ccc(-c2nc(N3CCOCC3)s[n+]2-c2ccccc2)cc1 : 13.1 µM (active)

// COc1ccc(-c2cc(=NCC(=O)O)c3ccccc3o2)cc1 : Potency value = 3.69 µM (active)

// field: Potency; key: COC(=O)C(O)(c1ccc(NC(=O)NC2CCCCC2)cc1)C(F)(F)F (stereo not drawn) ; value = 8.26 µM (active)
